These entries and their values trace back to PubChem BioAssay (NCI).

List of growth values.
System: NCI-H322M lung
Assay: NCI-60 one-dose screen, 48 h (100 = growth as untreated, 0 = no growth, -100 = all killed)
Details: 10 µM
Procedure: Growth inhibition of the NCI-H322M human Non-Small Cell Lung tumor cell line is measured as a screen for anti-cancer activity. Cells are grown in 96 well plates and exposed to the test compound for 48 hours. Compounds are tested at a single concentration, which is 10^-5 M for most compounds. The reported endpoint is percent growth (GI% or GIPRCNT), where numbers from 0 - 100% represent growth inhibition, and numbers from -100% - 0 represent cell death. […]
About 83,000 compounds went through this panel and 20% of them were active in at least one assay; those are over-represented in the sample as a whole.
Express your answer in %, writing the number without its unit.

A selection of reference data follows.
INSERT INTO assay_data (molecule, reported) VALUES
  ('CSc1nn(-c2ccccc2)c2ncnc(Oc3ccccc3)c12', 88.6),
  ('Clc1nc(Cl)c2c(ncn2C/C=C\Cn2cnc3c(Cl)nc(Cl)nc32)n1', 8.09),
  ('CCN(CC)CCNC(=O)c1ccc(NC(C)=O)cc1', 105);

Query (molecule): CCC(=O)N1C/C(=C/c2ccc(OC)cc2)C(=O)/C(=C/c2ccc(OC)cc2)C1 ; field requested: growth
111
